target.system: KRasG12C (Homo sapiens, UniProt P01116, G12C)
Construct: biotin (biotinylated)
Sequence (P01116 1-188 isoform P01116-2 G12C): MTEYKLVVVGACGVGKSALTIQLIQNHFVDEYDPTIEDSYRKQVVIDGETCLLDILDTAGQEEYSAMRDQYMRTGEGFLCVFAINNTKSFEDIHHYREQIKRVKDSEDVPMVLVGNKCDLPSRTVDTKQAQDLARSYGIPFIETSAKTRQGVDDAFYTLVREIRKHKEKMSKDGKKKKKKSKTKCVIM
test: KRasG12C functional assay (HTRF nucleotide exchange / Raf RBD binding)
condition.parameters: GDP loaded biotinylated KRasG12C, samples incubated 4 hrs, FRET readout; single experiment or average of two or more
The entries below come with measured IC50 values attached.
recorded.metric: IC50

{"compound": "C=CC(=O)N1CCN2c3c(cnc4c(F)c(-c5c(O)cccc5Cl)c(Cl)cc34)N(C)C(=O)[C@H]2C1 (single isomer, unassigned) [Compound 52]", "target.system": "KRasG12C (Homo sapiens, UniProt P01116, G12C)", "assay.value": "14 nM"}
{"compound": "C=CC(=O)N1CCN2c3c(cnc4cc(-c5c(C)ccc6[nH]c(=O)n(C)c56)c(Cl)cc34)OC[C@H]2C1 (single isomer, unassigned) [Compound 67]", "target.system": "KRasG12C (Homo sapiens, UniProt P01116, G12C)", "assay.value": "47 nM"}
{"compound": "C=CC(=O)N1CCN2c3c(cnc4c(F)c(-c5c(C)ccc6[nH]ncc56)c(Cl)cc34)N(C)C(=O)[C@H]2C1 (single isomer, unassigned) [Compound 50]", "target.system": "KRasG12C (Homo sapiens, UniProt P01116, G12C)", "assay.value": "9600 nM"}
{"compound": "C=CC(=O)N1CCN2c3c(cnc4cc(-c5c(O)cccc5F)c(Cl)cc34)N(CC)C(=O)[C@H]2C1 [Compound 90]", "target.system": "KRasG12C (Homo sapiens, UniProt P01116, G12C)", "assay.value": "333 nM"}
{"compound": "C=CC(=O)N1CCN2c3c(cnc4c(F)c(-c5c(C)ccc6[nH]cnc56)c(Cl)cc34)OC[C@H]2C1 (single isomer, unassigned) [Compound 78]", "target.system": "KRasG12C (Homo sapiens, UniProt P01116, G12C)", "assay.value": "7140 nM"}
{"compound": "C=CC(=O)N1CCN2c3c(cnc4cc(-c5c(O)cccc5F)c(Cl)cc34)OC[C@H]2C1 (single isomer, unassigned) [Example 2]", "target.system": "KRasG12C (Homo sapiens, UniProt P01116, G12C)", "assay.value": "281 nM"}
{"compound": "C=CC(=O)N1CCN2c3c(cnc4c(C)c(-c5c(O)cccc5F)c(C)nc34)N(C)C(=O)[C@H]2C1 (single isomer, unassigned) [Compound 92]", "target.system": "KRasG12C (Homo sapiens, UniProt P01116, G12C)", "assay.value": "82 nM"}
{"compound": "C=CC(=O)N1C[C@@H]2C(=O)N(C)c3cnc4c(F)c(-c5c(O)cccc5F)c(Cl)cc4c3N2C[C@H]1C (single isomer, unassigned) [Example 21]", "target.system": "KRasG12C (Homo sapiens, UniProt P01116, G12C)", "assay.value": "9500 nM"}
{"compound": "C=CC(=O)N1C[C@@H]2C(=O)N(C)c3cnc4c(F)c(-c5c(C)ccc6[nH]cnc56)c(Cl)cc4c3N2C[C@H]1C (single isomer, unassigned) [Compound 27]", "target.system": "KRasG12C (Homo sapiens, UniProt P01116, G12C)", "assay.value": "8800 nM"}
{"compound": "C=CC(=O)N1CCN2c3c(cnc4c(F)c(-c5c(O)ccc(F)c5F)c(Cl)cc34)N(C)C(=O)[C@H]2C1 (single isomer, unassigned) [Compound 57]", "target.system": "KRasG12C (Homo sapiens, UniProt P01116, G12C)", "assay.value": "8900 nM"}
{"compound": "C=CC(=O)N1CCN2c3c(cnc4c(F)c(-c5c(C)ccc6[nH]cnc56)c(Cl)cc34)N(C)C(=O)[C@H]2C1 (single isomer, unassigned) [Compound 26]", "target.system": "KRasG12C (Homo sapiens, UniProt P01116, G12C)", "assay.value": "446 nM"}
{"compound": "C=CC(=O)N1CCN2c3c(cnc4cc(-c5c(C)ccc6[nH]ncc56)c(Cl)cc34)N(CCN(C)C)C[C@H]2C1 (single isomer, unassigned) [Compound 74]", "target.system": "KRasG12C (Homo sapiens, UniProt P01116, G12C)", "assay.value": "13100 nM"}
{"compound": "C=CC(=O)N1CCN2c3c(cnc4c(F)c(-c5c(C)ccc6[nH]c(=O)oc56)c(Cl)cc34)OC[C@H]2C1 (single isomer, unassigned) [Compound 48]", "target.system": "KRasG12C (Homo sapiens, UniProt P01116, G12C)", "assay.value": "3600 nM"}
{"compound": "C=CC(=O)N1CCN2c3c(cnc4cc(-c5c(O)cccc5F)c(Cl)c(Cl)c34)N(C)C(=O)[C@H]2C1 [Compound 60]", "target.system": "KRasG12C (Homo sapiens, UniProt P01116, G12C)", "assay.value": "501 nM"}
{"compound": "C=CC(=O)N1CCN2c3c(cnc4c(F)c(-c5c(O)cccc5F)c(Cl)cc34)N(C)C(=O)C2C1 (single isomer, unassigned) [Example 19]", "target.system": "KRasG12C (Homo sapiens, UniProt P01116, G12C)", "assay.value": "> 9200 nM"}
{"compound": "C=CC(=O)N1CCN2c3c(cnc4cc(-c5c(O)cccc5F)c(Cl)cc34)N(C)C[C@H]2C1 [Example 14]", "target.system": "KRasG12C (Homo sapiens, UniProt P01116, G12C)", "assay.value": "132 nM"}
{"compound": "C=CC(=O)N1CCN2c3c(cnc4c(F)c(-c5c(O)cccc5C(F)F)c(Cl)cc34)N(C)C(=O)[C@H]2C1 (single isomer, unassigned) [Compound 62]", "target.system": "KRasG12C (Homo sapiens, UniProt P01116, G12C)", "assay.value": "37 nM"}
{"compound": "C=CC(=O)N1CCN2c3c(cnc4c(F)c(-c5c(C)ccc6[nH]cnc56)c(Cl)cc34)OC[C@H]2C1 (single isomer, unassigned) [Compound 77]", "target.system": "KRasG12C (Homo sapiens, UniProt P01116, G12C)", "assay.value": "28 nM"}
{"compound": "C=CC(=O)N1CCN2c3c(cnc4cc(-c5c(O)cccc5F)c(Cl)cc34)N(C)C(=O)[C@H]2C1 [Example 15]", "target.system": "KRasG12C (Homo sapiens, UniProt P01116, G12C)", "assay.value": "145 nM"}
{"compound": "C=CC(=O)N1CCN2c3c(cnc4cc(-c5c(F)ccc6cc[nH]c(=O)c56)c(Cl)cc34)OC[C@H]2C1 (single isomer, unassigned) [Compound 46]", "target.system": "KRasG12C (Homo sapiens, UniProt P01116, G12C)", "assay.value": "1100 nM"}
{"compound": "C=CC(=O)N1CCN2c3c(cnc4c(C)c(-c5c(O)cccc5F)c(C)nc34)N(C)C(=O)[C@H]2C1 (single isomer, unassigned) [Compound 91]", "target.system": "KRasG12C (Homo sapiens, UniProt P01116, G12C)", "assay.value": "35200 nM"}
{"compound": "C=CC(=O)N1CCN2c3c(cnc4cc(-c5c(O)cccc5F)c(Cl)cc34)OC[C@H]2C1 (single isomer, unassigned) [Example 1]", "target.system": "KRasG12C (Homo sapiens, UniProt P01116, G12C)", "assay.value": "186 nM"}
{"compound": "C=CC(=O)N1CCN2c3c(cnc4cc(-c5c(C)ccc6[nH]c(=O)[nH]c56)c(Cl)cc34)OC[C@H]2C1 (single isomer, unassigned) [Compound 71]", "target.system": "KRasG12C (Homo sapiens, UniProt P01116, G12C)", "assay.value": "47 nM"}
